The measured values listed here are drawn from patent US20060111341A1.

# Target: Acetylcholinesterase (Homo sapiens)
# Experimental Protocol: biochemical
Measured Endpoint: log10 IC50 (log10 of the value in µM)
Form field - Quantity: IC50; Unit: µM; Scale: log10

Known results for molecules:
> print(dat)
                                   molecule                               target  measured.endpoint  observed.result
1  C=C(C)C[N+]1(C)CCC23C=C[C@H](O)CC2Oc2c(OC)cc(C)c(c23)C1 (mixture of isomers) [Nr 67]  Acetylcholinesterase (Homo sapiens)         log10 IC50             1.85
2  COc1ccc2c3c1O[C@H]1C[C@@H](O)C=C[C@@]31CCN(CCCN1CCCCC1)C2 [Nr 128]  Acetylcholinesterase (Homo sapiens)         log10 IC50            -0.52
3  CCN(CC)c1nccc(N2CCC34C=C[C@H](O)CC3Oc3c(OC)ccc(c34)C2)n1 (mixture of isomers) [Nr 97]  Acetylcholinesterase (Homo sapiens)         log10 IC50             1.40

// log10 IC50 lookup, key: COc1ccc2c3c1O[C@H]1C[C@@H](O)C=C[C@@]31CCN(CCCO)C2 [Nr 144]
0.45

Using the record for COc1ccc2c3c1O[C@@H]1C[C@H](O)C=C[C@]31CC[N+](C)(CCN1CCOCC1)C2 (some centres unmarked) [Nr 12] , report its log10 IC50.
1.76

Record request: log10 IC50 value, item COc1ccc2c3c1O[C@H]1C[C@@H](O)C=C[C@@]31CC[N+](C)(CC(N)=O)C2 (some centres unmarked) [Nr 51]
0.49

# log10 IC50 lookup, item COc1ccc2c3c1O[C@H]1C[C@@H](O)C=C[C@@]31CCN(CN(NC(=O)OC(C)(C)C)C(=O)OC(C)(C)C)C2 [Nr 160]
0.56

State the recorded log10 IC50 for this entry: COc1ccc2c3c1O[C@@H]1C[C@H](O)C=C[C@]31CCN(CCCN1CCCCC1)C2 [Nr 153]
0.95

* * *

Record: pIC50 reported on UniProt P06276.
Sequence (P06276 29-602): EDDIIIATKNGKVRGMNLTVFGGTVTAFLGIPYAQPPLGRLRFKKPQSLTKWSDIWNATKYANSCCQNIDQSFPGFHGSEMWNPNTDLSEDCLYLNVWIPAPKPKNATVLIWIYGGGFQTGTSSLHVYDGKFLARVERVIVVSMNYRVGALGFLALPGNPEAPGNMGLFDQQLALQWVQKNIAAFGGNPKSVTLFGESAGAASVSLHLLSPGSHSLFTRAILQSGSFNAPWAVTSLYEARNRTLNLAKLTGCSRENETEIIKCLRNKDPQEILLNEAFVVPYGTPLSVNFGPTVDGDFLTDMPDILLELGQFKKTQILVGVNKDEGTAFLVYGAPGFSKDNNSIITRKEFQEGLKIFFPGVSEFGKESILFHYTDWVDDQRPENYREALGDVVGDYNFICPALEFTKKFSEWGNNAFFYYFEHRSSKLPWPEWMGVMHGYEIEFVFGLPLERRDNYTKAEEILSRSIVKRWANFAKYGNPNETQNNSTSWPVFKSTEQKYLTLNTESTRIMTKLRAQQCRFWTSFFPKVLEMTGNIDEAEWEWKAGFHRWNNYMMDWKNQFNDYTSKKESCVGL
Lab note: report pIC50 as minus log10 of the concentration in molar units, number only.

Please review the entries below; each comes with its answer.
> print(dat)
                                   molecule  observed.result
1  COc1ccc2c3c1OC1C/C(=N/N(C)C)C=CC31CCN(C)C2 (racemic)             4.22
2  COc1ccc2c3c1O[C@H]1C[C@H](N)C=C[C@@]31CCN(C)C2             5.22
3  COc1ccc2c3c1O[C@H]1C[C@@H](O)C=C[C@@]31CC[N+](C)=C2             5.82

For the next question, use this molecule.
Query the reported pIC50 for UniProt P06276; item: COc1ccc2c3c1O[C@H]1C[C@@H](OC(=O)N[C@@H](C)c4ccccc4)C=C[C@@]31CCN(C)C2
4.12

* * *

# Target: Acetylcholinesterase (Homo sapiens)
Measured Endpoint: IC50 (nM)
Please reply with the bare figure in nM and do not write the unit itself.

What IC50 value was documented for this molecule, COc1cc2c(cc1OC)C(=O)C(CCCCN1CC[C@@]34C=C[C@H](O)C[C@@H]3Oc3c(OC)ccc(c34)C1)C2 (stereo partly shown) ?
20

* * *

Catalogue of molecules with associated IC50
# Target: Acetylcholinesterase (Homo sapiens)
# Experimental Protocol: biochemical
Answer with a number only, understood to be in µM.

See these solved cases before continuing.
> print(dat)
                                   molecule  measured.endpoint  observed.result
1  COc1ccc2c3c1O[C@H]1C[C@@H](O)C=C[C@@]31CCN(C(=O)NC(C)C)C2               IC50              2.6
2  COc1ccc2c3c1O[C@H]1C[C@@H](O)C=C[C@@]31CCN(CCCCCN1C(=O)c3ccccc3S1(=O)=O)C2               IC50            0.022
3  COc1ccc2c3c1OC1C[C@@H](O)C=CC31CCN(CCCN1CC3CC1CN3c1ccccc1)C2 (mixture of isomers)               IC50               24

In the following, a different molecule is considered.
Query (molecule): CCCCNC(=S)O[C@@H]1C=C[C@]23CCN(C)Cc4ccc(OC)c(c42)O[C@@H]3C1 ; field requested: IC50
85

* * *

# Target: Acetylcholinesterase (Homo sapiens)
# Experimental Protocol: biochemical
Measured Endpoint: pIC50
Kindly note that pIC50 refers to -log10 of the concentration in mol/L and answer with the value alone.

A selection of reference data follows.
> print(dat)
                                   compound  observed.result
1  COc1cc(Br)c2c3c1OC1C[C@@H](O)C=CC31CCN(CCN1CCOCC1)C2 (mixture of isomers)             5.52
2  COc1ccc2c3c1O[C@H]1C[C@@H](O)C=C[C@@]31CC[N+](C)(Cc1ccc(Br)cc1)C2 (stereo partly shown)             6.70
3  COc1ccc2c(c1)CC(CCCCN1CC[C@@]34C=C[C@H](O)C[C@@H]3Oc3c(OC)ccc(c34)C1)C2=O (stereo partly shown) [Nr 157]             7.66
4  COc1ccc2c3c1OC1C[C@@H](O)C=CC31CCN(Cc1ccccc1)C2 (mixture of isomers)             6.15
5  COc1ccc2c3c1O[C@H]1C[C@@H](O)C=C[C@@]31CCN(C)C2C (stereo partly shown)             5.38

Could you tell me which pIC50 is on file for COc1ccc2c3c1O[C@H]1C[C@@H](O)C=C[C@@]31CCN(C(=O)NC(C)(C)C)C2 ?
5.60

Suppose we examine the compound C=CCNC(=S)N1CCC23C=C[C@H](O)CC2Oc2c(OC)ccc(c23)C1 (mixture of isomers) ; what pIC50 value has been reported?
4.68

// query pIC50 value for entry COc1ccc2c3c1OC1C[C@@H](O)C=CC31CCN(c1nccc(Cl)n1)C2 (mixture of isomers)
4.18

Give the measured pIC50 of COc1ccc2c3c1O[C@H]1C[C@@H](O)C=C[C@@]31CCN(CCCCN1C(=O)c3ccccc3S1(=O)=O)C2 [Nr 161] .
7.66

Data request, read-out pIC50, for CCOC(=O)C(=O)N1CCC23C=C[C@H](O)CC2Oc2c(OC)cc(Br)c(c23)C1 (mixture of isomers)
4.49

Reported pIC50 for COc1cc(N)c2c3c1O[C@H]1C[C@@H](O)C=C[C@@]31CCN(C)C2 : what is it?
4.11

* * *

# Target: Acetylcholinesterase (Homo sapiens, UniProt P22303)
# Sequence (P22303 32-614): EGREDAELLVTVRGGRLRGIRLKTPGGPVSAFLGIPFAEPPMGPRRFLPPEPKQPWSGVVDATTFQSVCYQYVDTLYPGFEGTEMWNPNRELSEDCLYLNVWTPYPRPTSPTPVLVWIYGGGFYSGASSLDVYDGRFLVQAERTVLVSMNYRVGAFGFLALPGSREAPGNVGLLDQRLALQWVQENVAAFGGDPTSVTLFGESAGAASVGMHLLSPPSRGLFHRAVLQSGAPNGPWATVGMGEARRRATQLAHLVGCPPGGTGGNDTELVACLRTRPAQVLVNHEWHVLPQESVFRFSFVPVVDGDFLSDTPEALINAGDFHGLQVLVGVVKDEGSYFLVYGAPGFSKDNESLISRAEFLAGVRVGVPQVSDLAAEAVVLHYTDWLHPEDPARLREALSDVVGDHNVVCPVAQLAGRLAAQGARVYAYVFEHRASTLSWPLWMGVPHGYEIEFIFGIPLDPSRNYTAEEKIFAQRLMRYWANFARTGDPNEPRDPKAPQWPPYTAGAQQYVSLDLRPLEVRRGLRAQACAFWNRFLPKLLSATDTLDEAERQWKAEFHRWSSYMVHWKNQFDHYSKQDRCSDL
# Experimental Protocol: biochemical
Measured Endpoint: IC50 (µM)
Your answer should be a plain number; it is taken to be in µM.

Example results:
> print(dat)
                                   molecule  observed.result
1  COc1cc(Br)c2c3c1OC1C[C@@H](O)C=CC31CCNC2 (mixture of isomers) [Nr 93]                5
2  COc1ccc2c3c1O[C@@H]1C[C@H](OC(=O)N[C@H](C)c4ccccc4)C=C[C@]31CCN(C)C2 [Nr 180]               85
3  COc1ccc2c3c1OC1C[C@@H](O)C=CC31CCN(c1nc(OCCCN(C)C)nc(OCCCN(C)C)n1)C2 (mixture of isomers) [Nr 94]               70

Attention now turns to another entry.
IC50 lookup needed for COc1ccc2c3c1O[C@H]1C[C@@H](O)C=C[C@@]31CC[N+](C)(CCN1CCCC1)C2 (stereo partly shown) [Nr 7] , thanks.
2

* * *

# Target: UniProtKB P06276
# Experimental Protocol: biochemical
Parameter IC50: see the listing below.

Answered cases to consult:
> print(dat)
                                   compound            target  observed.result
1  COc1cc([N+](=O)[O-])c2c3c1O[C@H]1C[C@@H](O)C=C[C@@]31CCN(C)C2  UniProtKB P06276            25 µM
2  COc1ccc2c3c1OC1C[C@@H](O)C=CC31CCC(N)C2 (mixture of isomers)  UniProtKB P06276         > 100 µM
3  COc1ccc2c3c1O[C@H]1C[C@@H](O)C=C[C@@]31CCN(C)C2C (stereo partly shown)  UniProtKB P06276            25 µM

Kindly consider the entry below.
Name the recorded IC50 for COc1ccc2c3c1O[C@H]1C[C@@H](O)C=C[C@@]31CCN(CC(=O)N1CC3CC1CN3c1ccccc1)C2 (stereo partly shown) .
2.4 µM
